Below, each of the compounds is paired with its reported log10 of MIC value.
system: Mycobacterium kansasii; assay: Antimycobacterial activity against Mycobacterium kansasii isolate 235/80 after 14 days by micromethod; assay type: functional; settings: isolate 235/80, 336 h
quantity-kind: log10 of MIC (log10 of the value in µM)

>>> value_observed("O=C(Nc1ccc(Br)cc1)c1cc(Cl)c(Br)cc1O")
0.90
>>> value_observed("O=C(Nc1ccc(Cl)c(Cl)c1)c1cc(Br)c(Cl)cc1O")
0.90
>>> value_observed("O=C(Nc1ccc(Br)cc1)c1ccc(Cl)cc1O")
0.60
>>> value_observed("O=C(Nc1cc(C(F)(F)F)cc(C(F)(F)F)c1)c1cc(Cl)ccc1O")
1.20
>>> value_observed("O=C(Nc1cc(C(F)(F)F)cc(C(F)(F)F)c1)c1cc(Br)c(Br)cc1O")
0.90
>>> value_observed("O=C(Nc1ccc(Br)cc1)c1cc(Br)c(Cl)cc1O")
0.90
>>> value_observed("O=C(Nc1ccc(C(F)(F)F)cc1)c1cc(Br)c(Cl)cc1O")
0.60
>>> value_observed("O=C(Nc1ccc(Cl)c(Cl)c1)c1cc(Br)ccc1O")
0.90
>>> value_observed("O=C(Nc1cc(C(F)(F)F)cc(C(F)(F)F)c1)c1ccc(Br)cc1O")
0.90
>>> value_observed("O=C(Nc1ccc(Cl)c(Cl)c1)c1ccc(Cl)cc1O")
0.90
>>> value_observed("O=C(Nc1ccc(Br)cc1)c1cc(Cl)c(Cl)cc1O")
0.90
>>> value_observed("O=C(Nc1ccc(C(F)(F)F)cc1)c1ccc(Br)cc1O")
0.30
>>> value_observed("O=C(Nc1ccc(C(F)(F)F)cc1)c1ccc(Cl)cc1O")
0.60
>>> value_observed("O=C(Nc1ccc(Cl)c(Cl)c1)c1ccc(Br)cc1O")
0.60
>>> value_observed("O=C(Nc1ccc(Cl)c(Cl)c1)c1cc(Cl)c(Br)cc1O")
0.90
>>> value_observed("O=C(Nc1ccc(Br)cc1)c1cc(Cl)ccc1O")
0.60
>>> value_observed("O=C(Nc1ccc(Cl)c(Cl)c1)c1cc(Cl)c(Cl)cc1O")
0.90
>>> value_observed("O=C(Nc1cc(C(F)(F)F)cc(C(F)(F)F)c1)c1cc(Br)c(Cl)cc1O")
0.90
>>> value_observed("O=C(Nc1ccc(C(F)(F)F)cc1)c1cc(Br)c(Br)cc1O")
0.60
>>> value_observed("Nc1ccc(C(=O)O)c(O)c1")
3.00
>>> value_observed("O=C(Nc1ccc(C(F)(F)F)cc1)c1cc(Cl)c(Br)cc1O")
0.60

* * *

Reported MIC values for a set of compounds
test system: Mycobacterium tuberculosis; assay: Antimycobacterial activity against Mycobacterium tuberculosis H37Rv My 331/88 after 14 days by micromethod; assay type: functional; conditions: H37Rv My 331/88, 336 h
quantity-kind: MIC

>>> value_observed("O=C(Nc1ccc(Cl)c(Cl)c1)c1cc(Cl)c(Cl)cc1O")
"2 µM"
>>> value_observed("O=C(Nc1ccc(Br)cc1)c1cc(Cl)ccc1O")
"8 µM"
>>> value_observed("O=C(Nc1cc(C(F)(F)F)cc(C(F)(F)F)c1)c1cc(Cl)ccc1O")
"4 µM"
>>> value_observed("NNC(=O)c1ccncc1")
"0.5 µM"
>>> value_observed("O=C(Nc1ccc(Cl)c(Cl)c1)c1cc(Cl)c(Br)cc1O")
"2 µM"
>>> value_observed("O=C(Nc1ccc(Br)cc1)c1ccc(Cl)cc1O")
"4 µM"

// data source = ChEMBL document CHEMBL3877325
